- Read-out: sulfotransferase (SULT2A), SULT2A1 (gene 6822)
- method_notes: CLD_SULT2A_48hr: CellzDirect (CLD) Gene Expression Assay for sulfotransferase (SULT2A) at 48 hours (AID 2283710);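 also: hits raise SULT2A1 transcript above the 0.2% DMSO vehicle baseline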
Records with an inconclusive call do not appear. The source made the active and inactive calls. The calls were made as follows: active = hit-call score of the fitted dose curve at least 0.9, where 1 is the maximum; inconclusive = response in the unintended direction; inactive = score below 0.9.
API: response.call in t = active, f = inactive

I would be grateful if you could indicate the recorded call for CCN(CC)c1nc(C)cc(OP(=S)(OC)OC)n1 .
f

And for CCCC(=NOCC)C1=C(O)CC(CC(C)SCC)CC1=O (centres undefined) ?
f

And for COCc1cnc(C2=NC(C)(C(C)C)C(=O)N2)c(C(=O)O)c1 (centres undefined) ?
f

And for COC(=O)N(C(=O)N1CO[C@@]2(C(=O)OC)Cc3cc(Cl)ccc3C2=N1)c1ccc(OC(F)(F)F)cc1 ?
f

And for CC1(C)C(C=C(Cl)Cl)C1C(=O)OC(C#N)c1cccc(Oc2ccccc2)c1 (centres undefined) ?
f

And for COC(=O)NC(=S)Nc1ccccc1NC(=S)NC(=O)OC ?
f

And for Cn1c(-c2ccccc2)cc(-c2ccccc2)[n+]1C ?
f

And for CS(=O)(=O)c1ccc(C(=O)C2C(=O)CCCC2=O)c([N+](=O)[O-])c1 ?
f

And for CCCCOCN(C(=O)CCl)c1c(CC)cccc1CC ?
f

And for CC1(C)CCC(=Cc2ccc(Cl)cc2)C1(O)Cn1cncn1 (centres undefined) ?
f

And for CC1(C)CON(Cc2ccccc2Cl)C1=O ?
f

And for Clc1cccc(C(Cl)(Cl)Cl)n1 ?
f

And for COC(=O)c1c(C(F)F)nc(C(F)(F)F)c(C2=NCCS2)c1CC(C)C ?
t

And for CCOc1nc(F)cc2nc(S(=O)(=O)Nc3c(Cl)cccc3Cl)nn12 ?
f

----------
- method_notes: ATG_Oct_MLP_CIS: Attagene CIS-FACTORIAL HepG2 Assay for human Octamer-Binding Transcription Factor (Oct) (AID 2282993)
- measurement_conditions: HepG2 Attagene cis-factorial Oct reporter, mRNA; actives raise or lower the signal
Activity calls are given as the source filed them. How the source made its calls: active means hit-call score of the fitted dose curve at least 0.9, where 1 is the maximum; inactive means score below 0.9.
API: response.call in TRUE for active, FALSE for inactive

I would be grateful if you could indicate the recorded call for CCCC(=NOCC)C1=C(O)CC(CC(C)SCC)CC1=O (stereo not drawn) .
FALSE

And for COCC(=O)N(c1c(C)cccc1C)C(C)C(=O)OC (stereo not drawn) ?
FALSE

And for CN/C(=N\[N+](=O)[O-])NCc1cnc(Cl)s1 ?
FALSE

And for N#Cc1c(Cl)cccc1Cl ?
FALSE

And for O=C1C2CC=CCC2C(=O)N1SC(Cl)(Cl)Cl (stereo not drawn) ?
FALSE

And for CC(C)=CC1C(C(=O)OCc2coc(Cc3ccccc3)c2)C1(C)C (stereo not drawn) ?
TRUE

And for COC(=O)NC(=S)Nc1ccccc1NC(=S)NC(=O)OC ?
TRUE

And for O=C(Nc1ccccc1-c1ccc(Cl)cc1)c1cccnc1Cl ?
TRUE

----------
- Read-out: xenobiotic metabolism (CYP1A1), CYP1A1 (gene 1543)
- method_notes: CLD_CYP1A1_48hr: CellzDirect (CLD) Gene Expression Assay for xenobiotic metabolism (CYP1A1) at 48 hours (AID 2283705)
Inconclusive results are not listed. The source made the active and inactive calls. Rule for the calls: active = hit-call score of the fitted dose curve at least 0.9, where 1 is the maximum; inconclusive = response in the unintended direction; inactive = score below 0.9.
API: response.call in 1 for active, 0 for inactive

I would be grateful if you could indicate the recorded call for CCCCC(C#N)(Cn1cncn1)c1ccc(Cl)cc1 (stereo not drawn) .
1

And for CCOc1cc(C(C)(C)C)ccc1C1COC(c2c(F)cccc2F)=N1 (stereo not drawn) ?
1

And for CCCCOCN(C(=O)CCl)c1c(CC)cccc1CC ?
1

And for CC(C)N1C(=O)N(c2ccccc2)CSC1=NC(C)(C)C ?
1

And for COP(=S)(OC)Oc1ccc([N+](=O)[O-])c(C)c1 ?
1

And for CCOc1nc(C(Cl)(Cl)Cl)ns1 ?
1

And for COc1ccc(-c2ccccc2)cc1NNC(=O)OC(C)C ?
0

And for Cc1c(COC(=O)[C@@H]2[C@H](/C=C(\Cl)C(F)(F)F)C2(C)C)cccc1-c1ccccc1 ?
1

----------
- method_notes: APR_HepG2_CellCycleArrest_1hr: Apredica 1-hour HepG2 Assay for Cell Cycle Arrest (AID 2282666)
- measurement_conditions: high-content imaging, actives raise or lower the signal
Active and inactive are the calls of the source. The calls were made as follows: active = hit-call score of the fitted dose curve at least 0.9, where 1 is the maximum; inactive = score below 0.9.
API: response.call in yes = active, no = inactive

I would be grateful if you could indicate the recorded call for N#Cc1c(Cl)cccc1Cl .
no

And for CC(C)N1C(=O)N(c2ccccc2)CSC1=NC(C)(C)C ?
no

And for CCNC(=O)NC(=O)C(C#N)=NOC ?
yes

And for COP(=S)(OC)Oc1ccc([N+](=O)[O-])c(C)c1 ?
no

And for COC(=O)NC(=S)Nc1ccccc1NC(=S)NC(=O)OC ?
no

And for CCOC(=O)C(C)OC(=O)c1cc(Oc2ccc(C(F)(F)F)cc2Cl)ccc1[N+](=O)[O-] (centres undefined) ?
no

And for CN/C(=N\[N+](=O)[O-])NCc1cnc(Cl)s1 ?
no

And for COC(=O)NS(=O)(=O)c1ccc(N)cc1 ?
no

And for CCSC(=O)N1CCCCCC1 ?
no

And for CSC(=O)c1c(C(F)F)nc(C(F)(F)F)c(C(=O)SC)c1CC(C)C ?
no

And for CC1(C)C(C(=O)OC(C#N)c2cccc(Oc3ccccc3)c2)C1(C)C (centres undefined) ?
no

And for CCN(CC)c1nc(C)cc(OP(=S)(OC)OC)n1 ?
no

And for CS(=O)(=O)c1ccc(C(=O)C2C(=O)CCCC2=O)c([N+](=O)[O-])c1 ?
no

And for Nc1c(Cl)c(F)nc(OCC(=O)O)c1Cl ?
no

And for Clc1cccc(C(Cl)(Cl)Cl)n1 ?
no

And for COc1cc(Cl)c(OC)cc1Cl ?
no

And for O=P(O)(O)CCCl ?
yes

And for CO/N=C(/C1=NOCCO1)c1ccccc1Oc1ncnc(Oc2ccccc2Cl)c1F ?
no

And for CC(C)Oc1cccc(NC(=O)c2ccccc2C(F)(F)F)c1 ?
no

And for COc1ccc(-c2ccccc2)cc1NNC(=O)OC(C)C ?
no

And for Cc1cnc(C2=NC(C)(C(C)C)C(=O)N2)c(C(=O)O)c1 (centres undefined) ?
no

And for N#Cc1c[nH]cc1-c1cccc2c1OC(F)(F)O2 ?
no

And for CCCN(CC)CC1COC2(CCC(C(C)(C)C)CC2)O1 (centres undefined) ?
no

And for CS(=O)(=O)c1cc(C(F)(F)F)ccc1C(=O)c1cnoc1C1CC1 ?
no

And for C=C(C)CN(CC)c1c([N+](=O)[O-])cc(C(F)(F)F)cc1[N+](=O)[O-] ?
no

And for COCC(=O)N(c1c(C)cccc1C)C(C)C(=O)OC (centres undefined) ?
no

And for O=C1C2CC=CCC2C(=O)N1SC(Cl)(Cl)Cl (centres undefined) ?
no

And for COCC(C)N(C(=O)CCl)c1c(C)csc1C (centres undefined) ?
no

And for CC(C)(C)C(=O)C(Oc1ccc(Cl)cc1)n1cncn1 (centres undefined) ?
no

----------
- Read-out: solute carrier (SLCO1B1), SLCO1B1 (gene 10599)
- method_notes: LTEA_HepaRG_SLCO1B1: Life Technologies and Expression Analysis (LTEA) Assay for solute carrier (SLCO1B1) using HepaRG (AID 2283530)
- measurement_conditions: mRNA level, 48 h; actives raise or lower the signal
Active and inactive are the calls of the source. How the source made its calls: active means hit-call score of the fitted dose curve at least 0.9, where 1 is the maximum; inactive means score below 0.9.
API: response.call in active, inactive

I would be grateful if you could indicate the recorded call for CN/C(=N\[N+](=O)[O-])NCc1cnc(Cl)s1 .
inactive

And for CCNC(=O)NC(=O)C(C#N)=NOC ?
inactive

And for O=C(O)c1c(Cl)ccc2cc(Cl)cnc12 ?
inactive

And for Nc1cnn(-c2ccccc2)c(=O)c1Cl ?
inactive

And for C=C(C)CN(CC)c1c([N+](=O)[O-])cc(C(F)(F)F)cc1[N+](=O)[O-] ?
inactive

And for CC(C)NC(=O)N1CC(=O)N(c2cc(Cl)cc(Cl)c2)C1=O ?
active

And for Clc1cccc(C(Cl)(Cl)Cl)n1 ?
inactive

----------
- method_notes: ATG_RORE_CIS: Attagene CIS-FACTORIAL HepG2 Assay for human RAR-related Orphan Receptor Element (RORE) (AID 2282959)
- measurement_conditions: HepG2 Attagene cis-factorial RORE reporter, mRNA; actives raise or lower the signal
The source made the active and inactive calls. The calls were made as follows: active = hit-call score of the fitted dose curve at least 0.9, where 1 is the maximum; inactive = score below 0.9.
API: response.call in T = active, F = inactive

I would be grateful if you could indicate the recorded call for Cn1c(-c2ccccc2)cc(-c2ccccc2)[n+]1C .
F

And for COCC(C)N(C(=O)CCl)c1c(C)csc1C (configuration not stated) ?
F

And for CC1(C)C(C(=O)OC(C#N)c2cccc(Oc3ccccc3)c2)C1(C)C (configuration not stated) ?
F

And for CNC(=O)N(C)c1nnc(C(C)(C)C)s1 ?
F

And for CNC(=O)Oc1cccc2ccccc12 ?
F

And for COC(=O)c1c(C(F)F)nc(C(F)(F)F)c(C2=NCCS2)c1CC(C)C ?
T

And for CC(C)N1C(=O)c2ccccc2NS1(=O)=O ?
F

And for CCSC(=O)N1CCCCCC1 ?
F

And for CCOP(=S)(OCC)Oc1nc(Cl)n(C(C)C)n1 ?
F

And for CCCN(CC)CC1COC2(CCC(C(C)(C)C)CC2)O1 (configuration not stated) ?
T

And for CCOc1nc(C(Cl)(Cl)Cl)ns1 ?
T

And for CC1(C)CCC(=Cc2ccc(Cl)cc2)C1(O)Cn1cncn1 (configuration not stated) ?
F

And for CC(C)Oc1cccc(NC(=O)c2ccccc2C(F)(F)F)c1 ?
T

And for CN/C(=N\[N+](=O)[O-])NCc1cnc(Cl)s1 ?
F

And for Nc1c(Cl)c(Cl)nc(C(=O)O)c1Cl ?
F

And for CCOC(=O)C(C)OC(=O)c1cc(Oc2ccc(C(F)(F)F)cc2Cl)ccc1[N+](=O)[O-] (configuration not stated) ?
T

And for CCCCC(C#N)(Cn1cncn1)c1ccc(Cl)cc1 (configuration not stated) ?
F
